Test system: PXR homodimer (NR concentration 270 nM)
Assay: PBM binding z-score (relative to random genomic background probes); higher = stronger binding; sequences stand for … in GC…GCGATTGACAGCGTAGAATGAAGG
Grouping rule (PBM binding z-score): bucket 1: < -0.003; bucket 2: ≥ -0.003 and < 0.6; bucket 3: ≥ 0.6

seq.text	assigned.class
TGTGCTAGGTCAGTTGGTCAGCTAACGAGCTGCC	bucket 1
GGAACGAGGACAAAGTTGATAGCATCTGTCGACG	bucket 1
TCGAGTATGTTAGTCGGGGCATTCAGCCAACATA	bucket 1
TCGAATAGGTTAGGGGCATTCAGAATGGCGTCGA	bucket 2
TTAGACAGGTGAAGGTAACTCAGGTACGCAGTCG	bucket 1

Asked: Which class holds `ATTTGTAGGTTAAGGGTCATTCAGGTTGGTTCGC` ?
Given back: bucket 3

Asked: Try this sequence too: `TCATATAGGTAAGAGGTGAAAGTCGGTGTGGTAA`
Given back: bucket 2

Asked: Try this sequence too: `ATCGAAAGGTCGAGGTGAGTATAGAGAAAGGGAA`
Given back: bucket 2

Asked: Try this sequence too: `CTACCAAGGTGAACAAGGTCGTTGGTTACTATTC`
Given back: bucket 3

Asked: Try this sequence too: `ATCGAAAGGTCGACGAGGTGAGTAGACACCGTTT`
Given back: bucket 2

Asked: Try this sequence too: `CGTCAAAGTTCAACTAAGGTGACGTAAAGCACGC`
Given back: bucket 3

* * *

System: PPARg DBDmut:RXRa IVT, anti-PPARg (DBD mutation: PPARg1 K132A/R137A, NR concentration 270 nM, RXRa partner concentration 90 nM)
Assay: PBM binding z-score (relative to random genomic background probes); higher = stronger binding; sequences stand for … in GC…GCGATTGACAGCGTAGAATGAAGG
Use 0.4 as the dividing line for PBM binding z-score, with the line itself on the yes side and lower values as no.

seq.text	assigned.class
GCTTGTAGATCAAGCTTAAGAAAGACTAAGCTAA	no
TCTGCTAGGTCAACGATGGTCAGCTATTCTGCTA	no
CCTGCTAGGTCATGGTCAGCTAGTCTACAGTATG	no
TGTCAAAGTTCAAAGGTAACCTAAGTATCCACAC	yes
CTTCCAAGGTCAAAGGTCAGTGAAGAGATGACGG	yes
TTACCAAGGTGAAGGTCGTTCATCCCTCTGTAGA	no
TCAGAGAGGTGAAGGTAACTCAGGTACGCAGTCG	no
ATCTCTAGGTAAAGTTCAGTGCAAGATCGATAGA	yes
TGAGTGAGGTTATAAGATCAGGGAACGTTGCAAA	yes
CCTGATAGGTCATGGTCAGCTAATCTACAGTATG	yes

Asked: Please tell me: is the sequence `TCTATTAGTTGATTCGGGCAACCGAAACAGCGGA` at or over 0.4 in terms of PBM binding z-score?
Given back: yes

Asked: Try this sequence too: `AGAATGAGGATAAGATCAGGGAAACAGAATACAT`
Given back: no

* * *

System: VDR homodimer (NR concentration 270 nM)
Assay: PBM binding z-score (relative to random genomic background probes); higher = stronger binding; sequences stand for … in GC…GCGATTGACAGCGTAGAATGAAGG
Please provide measured PBM binding z-score for the entries that follow.
Answers are plain numbers.

seq.text	meas.value
CCTACTGGGCCTAGGTCATTGATCAGTCAAAGCA	0.74
GCTGCCAGGTCAACTGATGGTCAGCTAAAGCTCG	0.679
ACAGAAAGGTGATGAAGGTAACTCAGGCTATCAT	-0.00913
CCGACTGGGGCAAGGTTTCCATAACGCACAGCCA	-0.47
ATCTCTAGGTAACCAAGTTCTGTGAATGCCGAAC	0.355

Record PBM binding z-score for all entries; do not skip any.
1. AGAACGAGGGCACGCTGAGTAGATAGCAGAGTAG
2. CGTCCAAGGTCAAGGTCAGTGACAGAGACTCGAA
3. TCATATAGGTAAATGCTAGGTGAAAGACCGATCT
4. GCTGCTAGGTCAACTGATGGTCAGATAAAGCTCG
5. TCTAGTAGGTTAGGGGCATTCAGAATGGCGTCGA
6. AGAATGAGGATATACGTAGATCAGGGAAGAAAGT
7. CCTACTGGGCCATTCAAAGGTCATTGATCATATG
8. TCTATTAGCTGATTAGGGCAACCGAAACAGCGGA

Given back:
0.46
3.35
0.112
0.346
1.39
-0.0995
2.4
-0.58
